The reader will find reported growth inhibition values listed item by item below.
- TEST DETAILS: NCI Yeast Anticancer Drug Screen. Data for the cln2 rad14 strain (AID 165);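 note: 0% = growth equal to vehicle treated cultures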
- ASSAY SETUP: S. cerevisiae cln2 rad14 strain, at 50.0 µM, active compounds read high
This is part of a sample that, as a whole, favours compounds with a hit. Of some 79,000 tested, about 15% had one in any assay.
Answer in %, number only, no unit symbol.

The cases that follow already have their growth inhibition on record.
MOLECULE	READOUT NUMBER
O=C1CCCCC(=O)Nc2ccc3nc4ccccc4c(c3c2)SCCCCCCCCSc2c3ccccc3nc3ccc(cc23)N1	-6.05
CS(=O)(=O)CC(O)(c1ccccc1)c1ccccc1	-13.3
Cn1ccnc1CC(C)(O)c1ccccc1 (configuration not stated)	3.9
N#Cc1ccc(OCCCCCOc2ccc([N+](=O)[O-])cc2)cc1	12.8
CCOC(=O)NN(C(=O)OCC)C(C(=O)C1=CCCCC1)N(NC(=O)OCC)C(=O)OCC	0.2

stdin: Tell me measured growth inhibition for O=C(O)CCc1ccc(NC(=O)CCl)cc1 please.
stdout: 8.35

stdin: Tell me measured growth inhibition for NC(C(=O)O)c1ccccc1 (configuration not stated) please.
stdout: -1.9

====

- TEST DETAILS: NCI Yeast Anticancer Drug Screen. Data for the sgs1 mgt1 strain (AID 161);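 note: 0% = growth of cultures given vehicle only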
- ASSAY SETUP: S. cerevisiae sgs1 mgt1 strain, at 50.0 µM, active compounds read high
Compounds without any hit were thinned out: in the full panel of roughly 79,000, 15% have a hit.
READOUT: growth inhibition (%)
Answer in %, number only, no unit symbol.

The cases that follow already have their growth inhibition on record.
COMPOUND	growth inhibition (%)
Cc1ccc(N=NNc2ccccc2)cc1	-7.65
CS(=O)(=O)CC(=O)c1ccc(Br)cc1	14.1
CC(=O)Nc1c(Nc2ccc3c(=O)[nH]ccc3c2C)cc[nH]c1=O	17.1
O=C(O)c1nn(-c2ccc(Cl)cc2)c2c1C(=O)c1ccccc1C2=O	-1.75

stdin: Tell me measured growth inhibition for NC(N)=Nc1ccc(Sc2ccc(N=C(N)N)cc2)cc1 please.
stdout: -16.6

stdin: Tell me measured growth inhibition for CCOC(=O)C(=O)Cc1cnccn1 please.
stdout: -11.8

stdin: Tell me measured growth inhibition for c1ccc(C2Nc3ccccc3NC2c2ccccc2)cc1 (stereo unspecified) please.
stdout: 24.4

stdin: Tell me measured growth inhibition for CC(=O)Nc1ccc(/C=N/NC(N)=S)cc1 please.
stdout: 17

stdin: Tell me measured growth inhibition for O=C(O)c1ccc(Cl)c(N=C/C=C/c2ccccc2)c1 please.
stdout: 6.6

stdin: Tell me measured growth inhibition for CONCc1ccc(C(=O)NC(C)C)cc1 please.
stdout: -5.95

stdin: Tell me measured growth inhibition for CC(C)CCCC(C)C1CCC2C3CCC4=CC(=O)C=CC4(C)C3CCC12C (stereo unspecified) please.
stdout: 47.6

stdin: Tell me measured growth inhibition for Cc1c(-c2ccccc2)n[nH]c1-c1[nH]nc(-c2ccccc2)c1C please.
stdout: -24.2

stdin: Tell me measured growth inhibition for O=S(=O)(c1ccccc1)c1ccc(CBr)cc1 please.
stdout: -10.4

stdin: Tell me measured growth inhibition for CCN(CC)Cc1cc(NC(C)=O)ccc1O please.
stdout: -17.4

stdin: Tell me measured growth inhibition for Cc1ccc(NC(=O)Nc2cccc(C(F)(F)F)c2)cc1NC(=O)Nc1cccc(C(F)(F)F)c1 please.
stdout: 31.9

stdin: Tell me measured growth inhibition for CSc1nc2c(c(=O)n1C)N=C(c1ccccc1)[C@H](C(CC(=O)c1ccccc1)c1ccccc1)C(c1ccccc1)N2 (stereo partly specified) please.
stdout: 41.1

====

- TEST DETAILS: NCI Yeast Anticancer Drug Screen. Data for the cln2 rad14 strain (AID 165);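 note: 0% = growth equal to vehicle treated cultures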
- ASSAY SETUP: S. cerevisiae cln2 rad14 strain, at 50.0 µM, active compounds read high
- Protocol: Growth inhibition of yeast strains with defined genetic alterations is measured as a screen for potential anti-cancer activity. Selected strains with alterations in DNA damage repair or cell cycle control were exposed to compounds and growth inhibition was measured relative to vehicle treated controls. The strain used in this assay is cln2 rad14
This is part of a sample that, as a whole, favours compounds with a hit. Of some 79,000 tested, about 15% had one in any assay.
READOUT: growth inhibition (%)
Answer in %, number only, no unit symbol.

The cases that follow already have their growth inhibition on record.
COMPOUND	growth inhibition / %
Clc1ccc2ccc3ccc(Cl)nc3c2n1	-18.5
O=c1nc(NC(c2ccccc2)(c2ccccc2)c2ccccc2)ccn1CCCl	-23.9

Please examine the following record next.
stdin: Tell me measured growth inhibition for COc1cc(NS(=O)(=O)c2ccccc2)ccc1C please.
stdout: 12.3

====

- TEST DETAILS: NCI Yeast Anticancer Drug Screen. Data for the cln2 rad14 strain (AID 165);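 note: 0% = growth equal to vehicle treated cultures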
- ASSAY SETUP: S. cerevisiae cln2 rad14 strain, at 50.0 µM
Compounds without any hit were thinned out: in the full panel of roughly 79,000, 15% have a hit. Activity calls are given as the source filed them. Rule as the data show it: active = growth inhibition above about 70%; inactive = the rest.
Valid outcomes are listed here; reply with one: active, inactive

COMPOUND	GROUP
O=C1NC(=NC2CCCCC2)C2(CCN(CCCC3(c4ccc(F)cc4)OCCO3)CC2)N1c1ccccc1	inactive
C/C(=C\C(N)=O)C(C)(C)C	inactive

stdin: Query: recorded result category for COC(=O)C1(CC(=O)c2ccc(C)cc2)NC(=S)NC(=O)C1C#N (stereo not drawn) in this test
stdout: inactive

stdin: Query: recorded result category for O=C(O)C1CCCCCC1 in this test
stdout: inactive

stdin: Query: recorded result category for O=C(/C=C/c1ccc(O)cc1)c1cc(O)cc(O)c1 in this test
stdout: inactive

stdin: Query: recorded result category for CCCCn1c2nc(=O)n(C)c(=O)c-2cc2ccccc21 in this test
stdout: inactive

====

- TEST DETAILS: NCI Yeast Anticancer Drug Screen. Data for the rad50 strain (AID 155);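 note: 0% = growth of vehicle-only cultures of the same strain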
- ASSAY SETUP: S. cerevisiae rad50 strain growth inhibition; at 50.0 µM
Compounds without any hit were thinned out: in the full panel of roughly 79,000, 15% have a hit. Active and inactive are the calls of the source. Rule as the data show it: active = growth inhibition above about 70%; inactive = the rest.
Valid outcomes are listed here; reply with one: Y = active, N = inactive

MOLECULE	GROUP
COc1ccc2ccccc2c1Br	N
N#CNC(=NCCO)NCCO	N
CC(C)CCOC(=O)NC(Nc1ccc(F)cc1)(C(F)(F)F)C(F)(F)F	N
O=[N+]([O-])c1ccccc1C=Nc1ccccc1O	N
CCn1c(=O)c2c3ccc(O)cc3[nH]c2c2ccc(O)cc21	N
O=C1c2ccccc2C(=O)N1CCOCCOCCOCCN1C(=O)c2ccccc2C1=O	N
Cn1ccc2c3ccn(C)c3ccc21	N
O=[N+]([O-])c1nccn1CC(O)CN1CCCCC1 (stereo not drawn)	N
CCN1/C(=C/C=C/C=C/c2oc3ccccc3[n+]2CC)Oc2ccccc21	N
O=C(CCN1CCCC1)c1ccccc1	N

stdin: Query: recorded result category for CCCCCCCCC1=C(CCCCCCC(=O)OC)[14CH2]1 in this test
stdout: N

stdin: Query: recorded result category for COc1ccc(Cc2cc3c(cc2OCC(=O)Nc2ccccn2)OCO3)cc1 in this test
stdout: N

stdin: Query: recorded result category for CC(=O)N(C(C)=O)c1cc2c3ccccc3ccc2c2ccccc12 in this test
stdout: N

====

- TEST DETAILS: NCI Yeast Anticancer Drug Screen. Data for the mlh1 rad18 strain (AID 175)
- ASSAY SETUP: S. cerevisiae mlh1 rad18 strain growth inhibition; at 50.0 µM; active compounds read high
Compounds without any hit were thinned out: in the full panel of roughly 79,000, 15% have a hit.
READOUT: growth inhibition (%)
Answer in %, number only, no unit symbol.

stdin: Tell me measured growth inhibition for CS(=O)(=O)C(c1nc2n(c1O)C(=N)N=N2)c1nc2n(c1O)C(=N)N=N2 (stereo not given) please.
stdout: 9.8

stdin: Tell me measured growth inhibition for CC(C)(C)C1CCC2c3c([nH]c4ccccc34)C3C(=O)N(c4cc(Cl)ccc4Cl)C(=O)C3C2C1 (stereo not given) please.
stdout: 0.9

stdin: Tell me measured growth inhibition for C=CCN(CC=C)C(=O)C(=C)C please.
stdout: -4.1

stdin: Tell me measured growth inhibition for O=C1C(c2ccccc2)=C(O)c2cccc3cccc1c23 please.
stdout: -57.6

stdin: Tell me measured growth inhibition for COc1ccc(C(C#N)N2CCCCC2)cc1 (stereo not given) please.
stdout: 0.4

====

The reader will find reported growth inhibition values listed item by item below.
- TEST DETAILS: NCI Yeast Anticancer Drug Screen. Data for the mec2-1 strain (AID 157)
- ASSAY SETUP: S. cerevisiae mec2-1 strain, at 50.0 µM, active compounds read high
Compounds without any hit were thinned out: in the full panel of roughly 79,000, 15% have a hit.
Answer in %, number only, no unit symbol.

The cases that follow already have their growth inhibition on record.
MOLECULE	growth inhibition, %
Clc1ccc(C2OCCCO2)cc1	7.8
c1ccc(C[P+]2(c3ccccc3)c3ccccc3-c3ccccc32)cc1	-8

Please examine the following record next.
stdin: Tell me measured growth inhibition for Cc1ccc(S(=O)(=O)N/N=C2/CC3CCC4CC2CC34)cc1 (stereo not drawn) please.
stdout: -0.6
